Tested on: MAH104 biofilms
Format: cell-based, Mycobacterium avium subsp hominissuis 104 (MAH104)
Test Parameters: O.D.590 nm, biofilm vs planktonic
Assign labels as follows, please: 1 for lower capacity of biofilms to use the substrate compared with planktonic cultures below 4 fold; -1 for lower capacity of biofilms to use the substrate compared with planktonic cultures equal to or exceeding 4 fold.

Hi there! Is lower capacity of biofilms to use the substrate compared with planktonic cultures for `CCCCCC(=O)O` below 4 fold, do you know?
-1

Hi there! Is lower capacity of biofilms to use the substrate compared with planktonic cultures for `OCC(O)CO` below 4 fold, do you know?
-1

====

Tested on: MAH (strain 104) in established biofilms
Assay Protocol: Treatment of established MAH biofilms with antibiotics and metabolites (CFU)
Format: cell-based, Mycobacterium avium subsp hominissuis 104 (MAH104)
Test Parameters: established biofilms; clarithromycin 16 μg/ml, amikacin 4 μg/ml; 0.05% propionic or butyric acid, 0.2% glycerol; none 4.2 +/− 0.5 × 10^8
Marks after values point to notes of the source that are not given here.
Assay Metric: CFU/ml at 14 days

Sample records with CFU/ml at 14 days:
Compound	CFU/ml at 14 days
CCCC(=O)O	3.4 +/− 0.6 × 10^6* (1) CFU/ml
NCC[C@H](O)C(=O)N[C@@H]1C[C@H](N)[C@@H](O[C@H]2O[C@H](CN)[C@@H](O)[C@H](O)[C@H]2O)[C@H](O)[C@H]1O[C@H]1O[C@H](CO)[C@@H](O)[C@H](N)[C@H]1O [Amikacin, reference compound]	5.8 +/− 0.5 × 10^7*(1) CFU/ml
CC[C@H]1OC(=O)[C@H](C)[C@@H](O[C@H]2C[C@@](C)(OC)[C@@H](O)[C@H](C)O2)[C@H](C)[C@@H](O[C@@H]2O[C@H](C)C[C@H](N(C)C)[C@H]2O)[C@](C)(OC)C[C@@H](C)C(=O)[C@H](C)[C@@H](O)[C@]1(C)O [Clarithromycin, reference compound]	8.9 +/− 0.8 × 10^7*(1) CFU/ml
CCCCCC(=O)O	6.4 +/− 0.2 × 10^6*(1) CFU/ml
OCC(O)CO	1.1 +/− 0.3 × 10^9* CFU/ml

So what CFU/ml at 14 days did `CCC(=O)O` get with MAH (strain 104) in established biofilms?
5.5 +/− 0.4 × 10^6*(1) CFU/ml
